# Test system: Wolbachia pipientis
# TEST METHOD NOTES: Anti-Wolbachia Cell-Based Screen
# Assay type: functional
# Design: scale not given: in the data most compounds retested in dose-response had high values
# CONDITION SUMMARY: 5 µM
Screen size: about 48,000 compounds; about 13,000 (27%) showed an effect of 50% or more. Some of the results follow.
The compounds listed here are annotated with their Percent Effect.
Report the value in % with no unit label.

| COMPOUND | Percent Effect, % |
| --- | --- |
| CCOCC1CN(CCOCc2ccccc2)Cc2c1cnn2C (stereo unspecified) | -3.92 |
| CNc1nccc(-c2cn(C)nc2C)n1 | 5.366 |
| CC1(C)CN=C(N2CCN(CCCN3CCOCC3)CC2)S1 | 99.8 |

Which measured Percent Effect value corresponds to CCOCC1CN(CCc2ccccc2)Cc2c1cnn2C (stereo unspecified) ?
9.007

Which measured Percent Effect value corresponds to COCc1cnc2n1CCN(C1CCC1)C2C.O=C(O)C(F)(F)F (stereo unspecified) ?
11.12

Which measured Percent Effect value corresponds to `COCCCN(Cc1ccncc1)c1cc(C)ncn1` ?
0.1133

Which measured Percent Effect value corresponds to `CNS(=O)(=O)c1cccc(CNc2cc(C(F)(F)F)ccn2)c1` ?
-5.444

Which measured Percent Effect value corresponds to CCn1ncnc1C1CC(=O)NCc2nc(N3CCOCC3)sc21 (stereo unspecified) ?
112.6

Which measured Percent Effect value corresponds to Cc1nccn1CCCN1CCCC(c2nccn2C)C1 (stereo unspecified) ?
103.4

Which measured Percent Effect value corresponds to `COc1ccc(C(=O)NS(=O)(=O)c2ccc(C#N)cc2C(F)(F)F)cc1` ?
-4.886
